ASSAY TARGET: Protein cereblon/Tyrosine-protein kinase BTK (Homo sapiens, UniProt Q06187+Q96SW2)
Sequence (Q06187 2-659 limits assumed): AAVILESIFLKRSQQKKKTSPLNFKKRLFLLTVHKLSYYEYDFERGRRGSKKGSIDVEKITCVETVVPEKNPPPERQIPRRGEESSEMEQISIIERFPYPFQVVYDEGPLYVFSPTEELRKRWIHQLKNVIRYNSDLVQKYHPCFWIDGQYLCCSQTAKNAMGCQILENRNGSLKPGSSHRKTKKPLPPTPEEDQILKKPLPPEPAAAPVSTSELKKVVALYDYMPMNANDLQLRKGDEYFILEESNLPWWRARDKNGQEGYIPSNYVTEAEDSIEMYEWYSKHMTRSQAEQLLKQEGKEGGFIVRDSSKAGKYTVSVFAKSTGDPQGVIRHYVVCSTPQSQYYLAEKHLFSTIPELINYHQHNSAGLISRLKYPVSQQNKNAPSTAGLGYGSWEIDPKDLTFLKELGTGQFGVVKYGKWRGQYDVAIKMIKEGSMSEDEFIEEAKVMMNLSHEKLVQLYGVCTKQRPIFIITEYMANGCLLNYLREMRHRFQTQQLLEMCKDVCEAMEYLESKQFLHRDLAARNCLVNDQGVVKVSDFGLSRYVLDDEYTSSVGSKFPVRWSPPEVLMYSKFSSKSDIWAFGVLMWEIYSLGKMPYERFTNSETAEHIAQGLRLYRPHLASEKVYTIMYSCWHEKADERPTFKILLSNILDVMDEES
Sequence (Q96SW2 whole entry partner): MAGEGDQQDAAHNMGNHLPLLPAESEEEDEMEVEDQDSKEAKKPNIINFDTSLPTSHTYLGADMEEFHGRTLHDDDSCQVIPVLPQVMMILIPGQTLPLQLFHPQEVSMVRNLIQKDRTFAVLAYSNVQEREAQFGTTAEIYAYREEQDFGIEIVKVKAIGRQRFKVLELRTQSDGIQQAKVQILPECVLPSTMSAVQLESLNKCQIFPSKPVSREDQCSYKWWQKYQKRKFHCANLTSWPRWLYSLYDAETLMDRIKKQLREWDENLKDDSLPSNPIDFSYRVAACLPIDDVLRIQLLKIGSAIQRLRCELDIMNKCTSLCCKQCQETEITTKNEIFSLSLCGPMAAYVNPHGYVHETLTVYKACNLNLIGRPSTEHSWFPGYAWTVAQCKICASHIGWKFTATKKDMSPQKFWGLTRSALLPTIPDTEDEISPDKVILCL
TEST SUMMARY: PROTAC activity at BTK/CRBN in human MINO cells assessed as BTK protein degradation at 100 nM measured after 24 hrs by Western blotting analysis relative to control
Format: cell-based
QUANTITY: Activity (%)
# unit: % | format: bare number

The value of Activity measured for the compound Cc1cc(-c2nc(Nc3ccn(C4CN(CC5CCN(c6ccc7c(c6)C(=O)N(C6CCC(=O)NC6=O)C7=O)CC5)C4)n3)ncc2F)ccc1CNC(=O)c1cnc(C(C)(C)C)s1 (centres undefined) turned out to be 95

// Activity lookup, compound = Cc1cc(-c2nc(Nc3cnn(C4CN(CC5CCN(c6ccc7c(c6)C(=O)N(C6CCC(=O)NC6=O)C7=O)CC5)C4)c3)ncc2F)ccc1CNC(=O)c1ccc(C(C)(C)C)cc1 (centres undefined) , result: 29

For record O=C1CCC(N2C(=O)c3ccc(N4CC(CN5CCC(C#Cc6ccc(Nc7ncc(F)c(N8CCC(CO)CC8)n7)cn6)CC5)C4)cc3C2=O)C(=O)N1 (centres undefined) the listed Activity is 20

###

TEST SUMMARY: Clearance in Sprague-Dawley rat at 4 mg/kg, ip measured upto 48 hrs
MEASUREMENT CONDITIONS: in vivo
QUANTITY: CL/F at 48 h (mL/min/kg)
Kindly provide the numeric value in mL/min/kg only, without the unit symbol.

The compound listed as Cc1cc(-c2nc(Nc3cnn(C4CCN(CC5CCN(c6ccc7c(c6)C(=O)N(C6CCC(=O)NC6=O)C7=O)CC5)CC4)c3)ncc2F)ccc1CNC(=O)c1cn(C(C)(C)C)nn1 (stereo unspecified) has a reported CL/F at 48 h of 25.8

###

TEST SUMMARY: Apparent volume of distribution in Sprague-Dawley rat at 2 mg/kg, iv measured upto 48 hrs
Assay type: ADME, organism-based
MEASUREMENT CONDITIONS: in vivo, read-out: Vz
QUANTITY: Vd (L/kg)
The figure you give is taken to be in L/kg; do not add the unit.

// sample Cc1cc(-c2nc(Nc3cnn(C4CCN(CC5CCN(c6ccc7c(c6)C(=O)N(C6CCC(=O)NC6=O)C7=O)CC5)CC4)c3)ncc2F)ccc1CNC(=O)c1cn(C(C)(C)C)nn1 (stereo unspecified) , its Vd was 9.29

###

TEST SUMMARY: Clearance in Sprague-Dawley rat at 2mg/kg, iv measured upto 48 hrs
Assay type: ADME, organism-based
MEASUREMENT CONDITIONS: in vivo
QUANTITY: clearance (mL/min/kg)
State just the number; it will be interpreted in mL/min/kg.

Value of measured clearance for the entry Cc1cc(-c2nc(Nc3cnn(C4CCN(CC5CCN(c6ccc7c(c6)C(=O)N(C6CCC(=O)NC6=O)C7=O)CC5)CC4)c3)ncc2F)ccc1CNC(=O)c1cn(C(C)(C)C)nn1 (stereo unspecified) : 15.2

###

TEST SUMMARY: Cmax in Sprague-Dawley rat at 2 mg/kg, iv measured upto 48 hrs
Type: ADME, organism-based
MEASUREMENT CONDITIONS: in vivo
QUANTITY: Cmax

Value of measured Cmax for the entry Cc1cc(-c2nc(Nc3cnn(C4CCN(CC5CCN(c6ccc7c(c6)C(=O)N(C6CCC(=O)NC6=O)C7=O)CC5)CC4)c3)ncc2F)ccc1CNC(=O)c1cn(C(C)(C)C)nn1 (stereo unspecified) : 0.645 µg/mL

###

ASSAY TARGET: Protein cereblon/Tyrosine-protein kinase BTK (Homo sapiens, UniProt Q06187+Q96SW2)
TEST SUMMARY: PROTAC activity at BTK/CRBN in human MINO cells assessed as BTK protein degradation at 100 nM measured after 24 hrs by Western blotting analysis relative to control
Type: cell-based
List of Activity values.
Please format your answer as a value with the unit trailing.

Worked examples follow.
MOLECULE	ASSAY TARGET	Activity
Cc1cc(-c2nc(Nc3ccn(C4CN(CC5CCN(c6ccc7c(c6)C(=O)N(C6CCC(=O)NC6=O)C7=O)CC5)C4)n3)ncc2F)ccc1CNC(=O)c1noc(C(C)(C)C)n1 (stereo unspecified)	Protein cereblon/Tyrosine-protein kinase BTK (Homo sapiens, UniProt Q06187+Q96SW2)	99%
O=C1CCC(N2C(=O)c3ccc(N4CCC(CN5CCC(C#Cc6ccc(Nc7ncc(F)c(N8CCC(CO)CC8)n7)cn6)CC5)CC4)cc3C2=O)C(=O)N1 (stereo unspecified)	Protein cereblon/Tyrosine-protein kinase BTK (Homo sapiens, UniProt Q06187+Q96SW2)	35%
Cc1cc(-c2nc(Nc3ccn(C4CCN(CC5CCN(c6ccc7c(c6)C(=O)N(C6CCC(=O)NC6=O)C7=O)CC5)CC4)n3)ncc2F)ccc1CNC(=O)c1noc(C2CC2)n1 (stereo unspecified)	Protein cereblon/Tyrosine-protein kinase BTK (Homo sapiens, UniProt Q06187+Q96SW2)	63%
Cc1cc(-c2nc(Nc3ccn(C4CCN(CC5CCN(c6ccc7c(c6)C(=O)N(C6CCC(=O)NC6=O)C7=O)CC5)CC4)n3)ncc2F)ccc1CNC(=O)c1cn(C2CC2)nn1 (stereo unspecified)	Protein cereblon/Tyrosine-protein kinase BTK (Homo sapiens, UniProt Q06187+Q96SW2)	21%
Cc1cc(-c2nc(Nc3ccn(C4CCN(CC5CCN(c6ccc7c(c6)C(=O)N(C6CCC(=O)NC6=O)C7=O)CC5)CC4)n3)ncc2F)ccc1CNC(=O)c1cnc(C(C)(C)C)s1 (stereo unspecified)	Protein cereblon/Tyrosine-protein kinase BTK (Homo sapiens, UniProt Q06187+Q96SW2)	16%

Would you kindly look at the next entry?
Looking up O=C1CCC(N2C(=O)c3ccc(N4CCC(CN5CCN(c6ccc(Nc7ncc(F)c(N8CCC(CO)CC8)n7)cc6)CC5)CC4)cc3C2=O)C(=O)N1 (stereo unspecified) , I found its Activity recorded as 25%

###

TEST SUMMARY: Bioavailability in Sprague-Dawley rat at 4 mg/kg, ip measured upto 48 hrs
Assay type: ADME, organism-based
MEASUREMENT CONDITIONS: in vivo
QUANTITY: bioavailability (%)
Reply numerically in %, unit not repeated.

The measured bioavailability associated with Cc1cc(-c2nc(Nc3cnn(C4CCN(CC5CCN(c6ccc7c(c6)C(=O)N(C6CCC(=O)NC6=O)C7=O)CC5)CC4)c3)ncc2F)ccc1CNC(=O)c1cn(C(C)(C)C)nn1 (stereo unspecified) reads 65.7

###

Form field: Activity (one value per entry).
ASSAY TARGET: Protein cereblon/Tyrosine-protein kinase BTK (Homo sapiens, UniProt Q06187+Q96SW2)
TEST SUMMARY: PROTAC activity at BTK/CRBN in human MINO cells assessed as BTK protein degradation at 100 nM measured after 24 hrs by Western blotting analysis relative to control
Type: cell-based
Give a bare numeral; the unit % is implied.

Use these answered entries as a reference point.
COMPOUND	READING UNIT	Activity
O=C(/C=C/C(F)(F)F)Nc1cccc(Nc2nc(Nc3ccc(N4CCN(C5CN(c6ccc7c(c6)C(=O)N(C6CCC(=O)NC6=O)C7=O)C5)CC4)cc3)ncc2F)c1 (stereo unspecified)	%	26
Cc1cc(-c2nc(Nc3ccn(C4CN(CC5CCN(c6ccc7c(c6)C(=O)N(C6CCC(=O)NC6=O)C7=O)CC5)C4)n3)ncc2F)ccc1CNC(=O)c1nc(C(C)(C)C)no1 (stereo unspecified)	%	99
Cc1cc(-c2nc(Nc3ccn(C4CCN(CC5CCN(c6ccc7c(c6)C(=O)N(C6CCC(=O)NC6=O)C7=O)CC5)CC4)n3)ncc2F)ccc1CNC(=O)c1noc(C(C)(C)C)n1 (stereo unspecified)	%	99

Please examine the following record next.
The compound listed as NC(=O)c1ncc(N2CCCCC2)nc1Nc1ccc(C2CCN(C[C@@H]3CCN(c4ccc5c(c4)C(=O)N(C4CCC(=O)NC4=O)C5=O)C3)CC2)cc1 (stereo partly specified) has a reported Activity of 99
